For each entry below, report its IC50 value.
System: MRC-5 cell line
run_description: Cell viability assay for MRC-5 cell line (EZ-Cytox cytotoxicity experiment)
Type: cell-based
condition_label: Homo sapiens, MRC5, 120 h; MRC-5 normal cell line, 3-fold dilutions 10000 nM to 1.52 nM, 5 days; Exemplary Compounds, numeric values; read-out: Activity: IC50 value (nM) to MRC-5 cell line
I only need the number, in nM, no unit after it.

State the recorded IC50 for this entry: COc1cc(C(=O)NCC2CC3(CCN(CC4CCN(c5c(F)cc(NC6CCC(=O)NC6=O)cc5F)CC4)CC3)C2)ccc1Nc1ncc2c(n1)N(C(C)C)CC(F)(F)C(=O)N2C (centres unmarked)
7870

State the recorded IC50 for this entry: COc1cc(C(=O)NN2CCC(N3CC4(CCN(c5ccc(N(C)C6CCC(=O)NC6=O)cc5F)CC4)C3)CC2)ccc1Nc1ncc2c(n1)N(C(C)C)CC(F)(F)C(=O)N2C (centres unmarked)
25000

State the recorded IC50 for this entry: COc1cc(C(=O)NC2CC3(CCN(CC4CCN(c5ccc(N(C)C6CCC(=O)NC6=O)cc5F)CC4)CC3)C2)ccc1Nc1ncc2c(n1)N(C(C)C)CC(F)(F)C(=O)N2C (centres unmarked)
6550

State the recorded IC50 for this entry: COc1cc(C(=O)NC2CC3(CCN(CC4CCN(c5cccc6c5n(C)c(=O)n6C5CCC(=O)NC5=O)CC4)CC3)C2)ccc1Nc1ncc2c(n1)N(C(C)C)CC(F)(F)C(=O)N2C (centres unmarked)
3960

State the recorded IC50 for this entry: COc1cc(C(=O)NC2CC3(CCN(CC4CCN(c5ccc(NC6CCC(=O)NC6=O)cc5F)CC4)CC3)C2)ccc1Nc1ncc2c(n1)N(C(C)C)CC(F)(F)C(=O)N2C (centres unmarked)
23200

----------
Tested on: H526 cell line
run_description: Cell viability assay for NCI-H526 cell line (EZ-Cytox)
Type: cell-based
condition_label: Homo sapiens, NCI-H526, 120 h; H526 cells, 3-fold dilutions 3000 nM to 0.46 nM, 5 days
pIC50: −log10 of the molar value.
recorded_endpoint: pIC50

Identify the measured pIC50 of COc1cc(C(=O)NC2CCN(C(=O)CCN3CCN(c4ccc(NC5CCC(=O)NC5=O)cc4)CC3)CC2)ccc1Nc1ncc2c(n1)N(C1CCCC1)CC(F)(F)C(=O)N2C (centres unmarked) [Compound 13] for H526 cell line.
> 7.52

Identify the measured pIC50 of COc1cc(C(=O)NN2CCC(CN3CCN(c4ccc(NC5CCC(=O)NC5=O)cc4F)CC3)CC2)ccc1Nc1ncc2c(n1)N(C(C)C)CC(F)(F)C(=O)N2C (centres unmarked) [Compound 17] for H526 cell line.
> 7.30

Identify the measured pIC50 of COc1cc(C(=O)NN2CCC(CN3CCN(c4ccc(NC5CCC(=O)NC5=O)cc4Cl)CC3)CC2)ccc1Nc1ncc2c(n1)N(C(C)C)CC(F)(F)C(=O)N2C (centres unmarked) [Compound 19] for H526 cell line.
> 7.30

Identify the measured pIC50 of COc1cc(C(=O)NC2CC3(CCN(CC4CCN(c5ccc(OC6CCC(=O)NC6=O)cc5)CC4)CC3)C2)ccc1Nc1ncc2c(n1)N(C(C)C)CC(F)(F)C(=O)N2C (centres unmarked) [Compound 36] for H526 cell line.
> 7.52

Identify the measured pIC50 of COc1cc(C(=O)NC2CCN(CC3CN(c4ccc(NC5CCC(=O)NC5=O)cc4F)C3)CC2)ccc1Nc1ncc2c(n1)N(C(C)C)CC(F)(F)C(=O)N2C (centres unmarked) [Compound 20] for H526 cell line.
> 7.30

Identify the measured pIC50 of COc1cc(C(=O)NCC2CC3(CCN(CC4CCN(c5c(F)cc(NC6CCC(=O)NC6=O)cc5F)CC4)CC3)C2)ccc1Nc1ncc2c(n1)N(C(C)C)CC(F)(F)C(=O)N2C (centres unmarked) [Compound 30] for H526 cell line.
> 7.52

Identify the measured pIC50 of COc1cc(C(=O)NC2CC3(CCN(CC4CCN(c5ccc(N(C)C6CCC(=O)NC6=O)cc5)CC4)CC3)C2)ccc1Nc1ncc2c(n1)N(C(C)C)CC(F)(F)C(=O)N2C (centres unmarked) [Compound 27] for H526 cell line.
> 7.52

Identify the measured pIC50 of COc1cc(C(=O)NN2CCC(CCN3CCN(c4cccc(C(=O)NC5CCC(=O)NC5=O)c4)CC3)C2)ccc1Nc1ncc2c(n1)N(C1CCCC1)CC(F)(F)C(=O)N2C (centres unmarked) [Compound 11] for H526 cell line.
> 7.52

Identify the measured pIC50 of COc1cc(C(=O)NC2CCN(CCC3CCN(c4cccc5c4n(C)c(=O)n5C4CCC(=O)NC4=O)CC3)CC2)ccc1Nc1ncc2c(n1)N(C1CCCC1)CC(F)(F)C(=O)N2C (centres unmarked) [Compound 37] for H526 cell line.
> 7.30

Identify the measured pIC50 of COc1cc(C(=O)NN2CCC(N3CC4(CCN(c5ccc(N(C)C6CCC(=O)NC6=O)cc5)CC4)C3)CC2)ccc1Nc1ncc2c(n1)N(C(C)C)CC(F)(F)C(=O)N2C (centres unmarked) [Compound 31] for H526 cell line.
> 7.00

Identify the measured pIC50 of COc1cc(C(=O)NC2CC3(CCN(CC4CCN(c5ccc6c(N7CCC(=O)NC7=O)nn(C)c6c5)CC4)CC3)C2)ccc1Nc1ncc2c(n1)N(C1CCCC1)CC(F)(F)C(=O)N2C [Compound 40] for H526 cell line.
> 7.52

----------
For each entry below, report its pIC50 value.
System: H526 cell line
run_description: Cell viability assay for NCI-H526 cell line (EZ-Cytox)
Assay type: cell-based
condition_label: Homo sapiens, NCI-H526, 120 h; H526 cells, 3-fold dilutions 3000 nM to 0.46 nM, 5 days
pIC50: −log10 of the molar value.

State the recorded pIC50 for this entry: COc1cc(C(=O)NN2CCC(CCN3CCN(c4cccc(C(=O)NC5CCC(=O)NC5=O)c4)CC3)CC2)ccc1Nc1ncc2c(n1)N(C1CCCC1)CC(F)(F)C(=O)N2C (centres unmarked)
> 7.52

State the recorded pIC50 for this entry: COc1cc(C(=O)NN2CCC(CCN3CCN(c4ccc(NC5CCC(=O)NC5=O)cc4F)CC3)CC2)ccc1Nc1ncc2c(n1)N(C1CCCC1)CC(F)(F)C(=O)N2C (centres unmarked)
> 7.52

State the recorded pIC50 for this entry: COc1cc(C(=O)NC2CCC(N(C)CC3CCN(c4ccc(NC5CCC(=O)NC5=O)cc4F)CC3)CC2)ccc1Nc1ncc2c(n1)N(C1CCCC1)CC(F)(F)C(=O)N2C (centres unmarked)
> 7.52

State the recorded pIC50 for this entry: COc1cc(C(=O)NC2CCN(C(=O)CCCNc3ccc(C(=O)NC4CCC(=O)NC4=O)cc3)CC2)c(F)cc1Nc1ncc2c(n1)N(C1CCCC1)CC(F)(F)C(=O)N2C (centres unmarked)
> 7.30

State the recorded pIC50 for this entry: COc1cc(C(=O)NN2CCC(CN3CCN(c4cccc(C(=O)NC5CCC(=O)NC5=O)c4)CC3)CC2)ccc1Nc1ncc2c(n1)N(C1CCCC1)CC(F)(F)C(=O)N2C (centres unmarked)
> 7.30

State the recorded pIC50 for this entry: COc1cc(C(=O)NN2CCC(CN3CCN(c4ccc(NC5CCC(=O)NC5=O)cc4C(F)(F)F)CC3)CC2)ccc1Nc1ncc2c(n1)N(C(C)C)CC(F)(F)C(=O)N2C (centres unmarked)
> 7.00

State the recorded pIC50 for this entry: COc1cc(C(=O)NC2CCN(C(=O)CCN3CCN(c4cccc(C(=O)NC5CCC(=O)NC5=O)c4F)CC3)CC2)ccc1Nc1ncc2c(n1)N(C1CCCC1)CC(F)(F)C(=O)N2C (centres unmarked)
> 7.30

State the recorded pIC50 for this entry: COc1cc(C(=O)NC2CCN(C(=O)CCN3CCN(c4ccc(N(C)C5CCC(=O)NC5=O)cc4F)CC3)CC2)ccc1Nc1ncc2c(n1)N(C1CCCC1)CC(F)(F)C(=O)N2C (centres unmarked)
> 7.52

State the recorded pIC50 for this entry: COc1cc(C(=O)NN2CCC(CN3CCN(c4c(F)cc(NC5CCC(=O)NC5=O)cc4F)CC3)CC2)ccc1Nc1ncc2c(n1)N(C(C)C)CC(F)(F)C(=O)N2C (centres unmarked)
> 7.52

State the recorded pIC50 for this entry: COc1cc(C(=O)NC2CC3(CCN(CC4CCN(c5c(F)cc(N(C)C6CCC(=O)NC6=O)cc5F)CC4)CC3)C2)ccc1Nc1ncc2c(n1)N(C(C)C)CC(F)(F)C(=O)N2C (centres unmarked)
> 7.30

State the recorded pIC50 for this entry: COc1cc(C(=O)NC2CC3(CCN(CC4CCN(c5ccc(N(C)C6CCC(=O)NC6=O)cc5F)CC4)CC3)C2)ccc1Nc1ncc2c(n1)N(C(C)C)CC(F)(F)C(=O)N2C (centres unmarked)
> 7.30

----------
Test system: MRC-5 cell line
run_description: Cell viability assay for MRC-5 cell line (EZ-Cytox cytotoxicity experiment)
Type: cell-based
condition_label: Homo sapiens, MRC5, 120 h; MRC-5 normal cell line, 3-fold dilutions 10000 nM to 1.52 nM, 5 days; Exemplary Compounds, numeric values; read-out: Activity: IC50 value (nM) to MRC-5 cell line
IC50 less than 10000 nM is 1; IC50 greater than or equal to 10000 nM is -1.

Given the entry COc1cc(C(=O)NC2CC3(CCN(CC4CCN(c5c(F)cc(N(C)C6CCC(=O)NC6=O)cc5F)CC4)CC3)C2)ccc1Nc1ncc2c(n1)N(C(C)C)CC(F)(F)C(=O)N2C (centres unmarked) [Compound 29] , would its reported IC50 be below 10000 nM?
-1

Given the entry COc1cc(C(=O)NC2CC3(CCN(CC4CCN(c5c(F)cc(NC6CCC(=O)NC6=O)cc5F)CC4)CC3)C2)ccc1Nc1ncc2c(n1)N(C(C)C)CC(F)(F)C(=O)N2C (centres unmarked) [Compound 25] , would its reported IC50 be below 10000 nM?
1

Given the entry COc1cc(C(=O)NC2CC3(CCN(CC4CCN(c5ccc(OC6CCC(=O)NC6=O)cc5F)CC4)CC3)C2)ccc1Nc1ncc2c(n1)N(C(C)C)CC(F)(F)C(=O)N2C (centres unmarked) [Compound 35] , would its reported IC50 be below 10000 nM?
-1
